Biological target: PDE9 (Homo sapiens)
Sequence (O76083 whole entry): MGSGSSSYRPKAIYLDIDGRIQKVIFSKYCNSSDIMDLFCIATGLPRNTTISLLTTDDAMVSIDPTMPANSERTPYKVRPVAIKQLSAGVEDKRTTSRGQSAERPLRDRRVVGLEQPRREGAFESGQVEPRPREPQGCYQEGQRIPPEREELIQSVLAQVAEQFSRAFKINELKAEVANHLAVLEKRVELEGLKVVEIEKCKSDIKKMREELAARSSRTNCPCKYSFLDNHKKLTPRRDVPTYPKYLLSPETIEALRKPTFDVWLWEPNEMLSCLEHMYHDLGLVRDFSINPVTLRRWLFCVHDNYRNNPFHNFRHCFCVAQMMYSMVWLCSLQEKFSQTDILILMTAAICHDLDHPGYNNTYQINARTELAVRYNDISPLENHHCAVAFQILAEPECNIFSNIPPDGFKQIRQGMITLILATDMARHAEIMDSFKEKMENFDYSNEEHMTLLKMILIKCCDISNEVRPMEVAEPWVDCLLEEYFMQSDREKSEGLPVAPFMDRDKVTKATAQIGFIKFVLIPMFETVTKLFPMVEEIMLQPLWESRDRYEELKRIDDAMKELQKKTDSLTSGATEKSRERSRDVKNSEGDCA
Test: PDE9 inhibition assay
Assay type: biochemical
Conditions: SPA assay, 10 nM 3H-cAMP, 1 hour incubation; read-out: IC50
measured_parameter: IC50 (nM)

Use the examples below as a reference point.
compound | IC50 (nM)
CC(c1cn2c(-c3ccccc3)ncc2c(=O)[nH]1)N1CC(c2ccc(C#N)cc2)C1 (centres unmarked) [Compound 38] | 23
COc1ccc(CN2CC(C)C(c3cn4c(C5CCOCC5)ncc4c(=O)[nH]3)C2)cn1 (centres unmarked) [Compound 101] | 18
CC(c1cn2c(C3CCCC3)ncc2c(=O)[nH]1)N1CC(c2ccc(F)cc2)C1 (centres unmarked) [Compound 40] | 5
O=c1[nH]c(CN2CC(c3ccc(F)cc3)C2)cn2c(-c3ccc(F)cc3)ncc12 [Compound 76] | 33
O=c1[nH]c(CN2CC(OCc3ccc(Cl)cc3)C2)cn2c(-c3ccc(F)cc3)ncc12 [Compound 108] | 34

I. CC1CN(Cc2ccc(C(F)(F)F)nc2)CC1c1cn2c(C3CCOCC3)ncc2c(=O)[nH]1 (centres unmarked) [Compound 79]
II. O=c1[nH]c(CN2CCC(Oc3ncccn3)C2)cn2c(C3CCOCC3)ncc12 (centres unmarked) [Compound 84]
III. O=c1[nH]c(CN2CC(Oc3ccc(F)cc3)C2)cn2c(-c3ccccc3)ncc12 [Compound 23]
IV. CC(c1cn2c(C3CCOCC3)ncc2c(=O)[nH]1)N1CC(c2ncccn2)C1 (centres unmarked) [Compound 91]
Task: Could you please order the items by IC50, going from the lowest number to the highest? To answer, arrange all of the labels according to the requested order.
Result: III, I, IV, II

I. CC(c1cn2c(-c3ccccc3)ncc2c(=O)[nH]1)N1CC(c2ncccn2)C1 (centres unmarked) [Compound 36]
II. N#Cc1ccc(C2CN(Cc3cn4c(-c5ccccc5)ncc4c(=O)[nH]3)C2)cc1 [Compound 35]
Task: I'm curious, which of these has a smaller IC50 number: I or II ? Refer to your chosen item by its label in the answer.
Result: II
